Origin of measurements: paper PMC3057289

TESTED ON: TRPC5 (Homo sapiens, UniProt Q9UL62)
Sequence (Q9UL62 whole entry): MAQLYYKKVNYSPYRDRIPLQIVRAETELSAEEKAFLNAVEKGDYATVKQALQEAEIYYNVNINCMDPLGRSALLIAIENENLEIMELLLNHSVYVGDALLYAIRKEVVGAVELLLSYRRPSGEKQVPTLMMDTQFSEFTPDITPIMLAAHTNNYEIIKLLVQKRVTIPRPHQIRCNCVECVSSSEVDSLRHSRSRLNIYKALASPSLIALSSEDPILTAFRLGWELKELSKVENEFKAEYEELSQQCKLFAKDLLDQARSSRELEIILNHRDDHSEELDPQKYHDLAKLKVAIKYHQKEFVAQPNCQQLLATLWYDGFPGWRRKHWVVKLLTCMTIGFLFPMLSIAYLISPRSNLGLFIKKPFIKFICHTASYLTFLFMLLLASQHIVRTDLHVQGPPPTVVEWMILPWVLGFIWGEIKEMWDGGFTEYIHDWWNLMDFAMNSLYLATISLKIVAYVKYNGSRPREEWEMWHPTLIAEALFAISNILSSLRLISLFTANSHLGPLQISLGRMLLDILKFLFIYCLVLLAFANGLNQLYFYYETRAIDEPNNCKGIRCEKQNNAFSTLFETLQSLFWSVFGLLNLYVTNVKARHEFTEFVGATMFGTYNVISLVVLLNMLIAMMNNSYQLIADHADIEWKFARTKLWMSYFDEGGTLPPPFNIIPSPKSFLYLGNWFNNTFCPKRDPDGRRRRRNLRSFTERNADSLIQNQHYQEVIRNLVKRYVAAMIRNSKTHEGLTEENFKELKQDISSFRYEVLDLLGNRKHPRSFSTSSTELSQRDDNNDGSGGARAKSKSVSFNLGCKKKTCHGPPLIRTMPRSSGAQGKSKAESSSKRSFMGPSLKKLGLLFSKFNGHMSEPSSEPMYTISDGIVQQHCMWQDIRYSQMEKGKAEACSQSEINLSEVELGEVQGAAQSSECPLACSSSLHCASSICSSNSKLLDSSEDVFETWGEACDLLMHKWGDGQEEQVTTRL
ATTRIBUTE MEASURED: IC50

API: value(readout=IC50, system=TRPC5 (Homo sapiens, UniProt Q9UL62)) for record CC(=O)[C@H]1CC[C@H]2[C@@H]3CCC4=CC(=O)CC[C@]4(C)[C@H]3CC[C@]12C 5 µM
